# credit: patent US9556098B2

- METHOD_NOTES: Solubility of the crystal in hexane
- Type: physicochemical
- COND: n-hexane, temperature of 25° C.
REPORTED_PROPERTY: solubility in hexane (% by weight)
Give a bare numeral; the unit % by weight is implied.

COMPOUND: COc1c(O)c(C)c(C/C=C(\C)CC/C=C(\C)CC/C=C(\C)CC/C=C(\C)CC/C=C(\C)CC/C=C(\C)CC/C=C(\C)CC/C=C(\C)CC/C=C(\C)CCC=C(C)C)c(O)c1OC [Example 1, reduced coenzyme Q10]
solubility in hexane, % by weight: 9

Attention now turns to another entry.
Per the records, this compound ( COc1c(O)c(C)c(C/C=C(\C)CC/C=C(\C)CC/C=C(\C)CC/C=C(\C)CC/C=C(\C)CC/C=C(\C)CC/C=C(\C)CC/C=C(\C)CC/C=C(\C)CCC=C(C)C)c(O)c1OC [Comparative Example 1, reduced coenzyme Q10] ) has solubility in hexane equal to 36.5
